- target-or-system: human mGlu5a receptor (Homo sapiens (Human))
- Sequence (P41594 other isoform, or with tags, fused parts or gaps): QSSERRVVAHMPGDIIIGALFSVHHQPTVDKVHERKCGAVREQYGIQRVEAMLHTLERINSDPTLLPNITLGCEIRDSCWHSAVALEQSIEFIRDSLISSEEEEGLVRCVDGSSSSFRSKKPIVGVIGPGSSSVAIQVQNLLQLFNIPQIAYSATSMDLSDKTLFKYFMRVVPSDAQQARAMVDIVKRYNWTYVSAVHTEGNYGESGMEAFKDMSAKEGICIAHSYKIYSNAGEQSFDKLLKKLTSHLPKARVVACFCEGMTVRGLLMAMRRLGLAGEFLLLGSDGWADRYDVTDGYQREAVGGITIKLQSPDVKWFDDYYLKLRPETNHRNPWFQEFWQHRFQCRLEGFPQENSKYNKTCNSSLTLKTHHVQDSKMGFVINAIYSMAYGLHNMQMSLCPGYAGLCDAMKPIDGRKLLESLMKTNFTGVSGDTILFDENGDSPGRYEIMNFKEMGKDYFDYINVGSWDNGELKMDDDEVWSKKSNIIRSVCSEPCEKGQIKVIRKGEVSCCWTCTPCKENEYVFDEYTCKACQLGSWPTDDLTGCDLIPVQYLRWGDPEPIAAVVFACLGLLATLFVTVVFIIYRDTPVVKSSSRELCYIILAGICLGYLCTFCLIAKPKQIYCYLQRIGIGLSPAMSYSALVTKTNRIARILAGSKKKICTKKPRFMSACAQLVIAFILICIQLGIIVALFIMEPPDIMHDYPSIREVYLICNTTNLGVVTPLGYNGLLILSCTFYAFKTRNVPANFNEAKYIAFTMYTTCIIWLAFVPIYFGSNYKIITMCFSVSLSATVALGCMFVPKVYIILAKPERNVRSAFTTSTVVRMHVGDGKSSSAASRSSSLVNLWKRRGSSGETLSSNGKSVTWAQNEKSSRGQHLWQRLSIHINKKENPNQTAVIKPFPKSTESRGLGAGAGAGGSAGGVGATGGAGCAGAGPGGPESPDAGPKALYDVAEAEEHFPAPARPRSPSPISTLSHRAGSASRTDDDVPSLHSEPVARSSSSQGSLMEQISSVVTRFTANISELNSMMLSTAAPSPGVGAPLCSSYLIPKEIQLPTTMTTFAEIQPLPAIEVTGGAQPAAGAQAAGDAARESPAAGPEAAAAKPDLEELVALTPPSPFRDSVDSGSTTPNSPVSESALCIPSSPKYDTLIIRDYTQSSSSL
- assay-protocol: Intracellular Ca2+ mobilization assay (mGlu5 PAM assay)
- Assay type: cell-based
- stated-conditions: comparison table

[
  {
    "smiles-input": "CCN(C(=O)c1ncc(C#Cc2cccc(Cl)c2)cn1)C(C)(C)C",
    "target-or-system": "human mGlu5a receptor (Homo sapiens (Human))",
    "EC50 mGlu5 PAM assay": "inactive"
  },
  {
    "smiles-input": "CCN(C(=O)c1ccc(C#Cc2cccc(Cl)c2)cn1)C(C)(C)C",
    "target-or-system": "human mGlu5a receptor (Homo sapiens (Human))",
    "EC50 mGlu5 PAM assay": "inactive"
  },
  {
    "smiles-input": "CCN(C(=O)c1ccc(C#Cc2cccc(F)c2)cn1)C(C)(C)C",
    "target-or-system": "human mGlu5a receptor (Homo sapiens (Human))",
    "EC50 mGlu5 PAM assay": "inactive"
  },
  {
    "smiles-input": "CCN(C(=O)c1ncc(C#Cc2cccc(F)c2)cn1)C(C)(C)C",
    "target-or-system": "human mGlu5a receptor (Homo sapiens (Human))",
    "EC50 mGlu5 PAM assay": "inactive"
  }
]
